Please respond with reported GTPγS S1P3/S1P1 for every item in the list.
target: S1P1 (Homo sapiens (Human), UniProt P21453); experiment: Receptor [35S] GTPγS Binding Assay, S1P1; type: biochemical; conditions: ratio of GTPγS S1P3 EC50 to GTPγS S1P1 EC50; * and ** S1P3 value at detection limit
Sequence (P21453 whole entry): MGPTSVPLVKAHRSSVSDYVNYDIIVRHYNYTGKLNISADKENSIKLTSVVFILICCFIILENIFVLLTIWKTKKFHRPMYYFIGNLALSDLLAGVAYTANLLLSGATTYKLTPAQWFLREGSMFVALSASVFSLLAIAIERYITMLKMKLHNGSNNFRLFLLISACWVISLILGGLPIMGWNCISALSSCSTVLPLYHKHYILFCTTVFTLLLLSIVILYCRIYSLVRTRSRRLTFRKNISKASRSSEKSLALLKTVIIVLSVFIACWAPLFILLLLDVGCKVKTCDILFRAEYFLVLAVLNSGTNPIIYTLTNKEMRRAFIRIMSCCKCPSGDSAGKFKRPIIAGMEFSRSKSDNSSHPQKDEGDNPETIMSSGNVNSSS

> print(dat)
                                   compound    value
1  O=C(NC1CNC1)C(O)c1ccc(-c2noc(-c3onc(-c4ccccc4)c3C(F)(F)F)n2)cc1 (single isomer, unassigned)  > 614**
2  O=C(NC1CCC1)C(O)c1ccc(-c2noc(-c3onc(-c4ccccc4)c3C(F)(F)F)n2)cc1 (racemic)   > 387*

// returns GTPγS S1P3/S1P1 for O=C(NCc1cc2ccccc2[nH]1)C(O)c1ccc(-c2noc(-c3onc(-c4ccccc4)c3C(F)(F)F)n2)cc1 (racemic) with S1P1 (Homo sapiens (Human), UniProt P21453); value = > 20**

###

molecular target: UniProtKB Q99500; test: Receptor [35S] GTPγS Binding Assay, S1P3; settings: membranes from EDG3-Ga15-bla HEK293T cells; * detection limit 62,500 nM, ** detection limit 32,500 nM
Counter-ions that a name gives are not always drawn.
measuredProperty: EC50 (µM)
Answers are plain numbers, in µM.

Illustrative cases are given below, each with its answer.
> print(dat)
                                   compound  quantityunit  value
1  CNC(=O)[C@H](CCc1ccccc1)NC(=O)C(O)c1ccc(-c2noc(-c3onc(-c4ccccc4)c3C(F)(F)F)n2)cc1 (mixture of isomers)            µM    6.2
2  O=C(NCc1ccccn1)C(O)c1ccc(-c2noc(-c3cnn(-c4ccccc4)c3C(F)(F)F)n2)cc1 (racemic)            µM     11
3  CC(C)(C)OC(=O)NCCNC(=O)C(O)c1ccc(-c2noc(-c3onc(-c4ccccc4)c3C(F)(F)F)n2)cc1 (racemic)            µM   13.6

Take each entry in turn and give its EC50.
1. CN(C)C(=O)CCNC(=O)C(O)c1ccc(-c2noc(-c3onc(-c4ccccc4)c3C(F)(F)F)n2)cc1 (single isomer, unassigned)
2. CC(C)(O)CNC(=O)CCNC(=O)C(O)c1ccc(-c2noc(-c3onc(-c4ccccc4)c3C(F)(F)F)n2)cc1 (single isomer, unassigned)
3. Cn1cccc1CNC(=O)C(O)c1ccc(-c2noc(-c3onc(-c4ccccc4)c3C(F)(F)F)n2)cc1 (racemic)
4. O=C(NC1CCS(=O)(=O)C1)C(O)c1ccc(-c2noc(-c3onc(-c4ccccc4)c3C(F)(F)F)n2)cc1 (centres unmarked)
5. O=C(NCc1ncc[nH]1)C(O)c1ccc(-c2noc(-c3onc(-c4ccccc4)c3C(F)(F)F)n2)cc1 (single isomer, unassigned)
6. Cc1nnc(CNC(=O)C(O)c2ccc(-c3noc(-c4onc(-c5ccccc5)c4C(F)(F)F)n3)cc2)o1 (single isomer, unassigned)

[A]
1: 3.43; 2: 3.13; 3: 17.1; 4: 9.54; 5: 6.91; 6: 13.1

Take each entry in turn and give its EC50.
1. O=C(NCC1CCCN1)C(O)c1ccc(-c2noc(-c3onc(-c4ccccc4)c3C(F)(F)F)n2)cc1 (racemic) [Example 88, TFA]
2. O=C(NCCO)C(O)c1ccc(-c2noc(-c3noc(-c4ccccc4)c3C(F)(F)F)n2)cc1 (racemic)

[A]
1. 5.94
2. 9.21

###

biological target: S1P1 (Homo sapiens (Human), UniProt P21453); assay: Receptor [35S] GTPγS Binding Assay, S1P1; settings: membranes from S1P1/CHO cells; [35S]GTP
measuredProperty: EC50 (nM)
Numbers only, in nM.

Illustrative cases are given below, each with its answer.
> print(dat)
                                   compound  measuredproperty  quantityunit  value
1  CNC(=O)[C@H](C)NC(=O)C(O)c1ccc(-c2noc(-c3onc(-c4ccccc4)c3C(F)(F)F)n2)cc1 (mixture of isomers) [Example 32]              EC50            nM    1.5
2  N#CC1(NC(=O)C(O)c2ccc(-c3noc(-c4onc(-c5ccccc5)c4C(F)(F)F)n3)cc2)CC1 (single isomer, unassigned) [Example 41]              EC50            nM   15.7

// below: EC50 requested for another compound
For O=C(NCCO)C(O)c1ccc(-c2noc(-c3onc(-c4ccccc4)c3C(F)(F)F)n2)cc1 (single isomer, unassigned) [Example 71] the compound record lists EC50 as 2

###

target: S1P3 (Homo sapiens (Human)); experiment: Receptor [35S] GTPγS Binding Assay, S1P3; conditions: membranes from EDG3-Ga15-bla HEK293T cells; * detection limit 62,500 nM, ** detection limit 32,500 nM
Sequence (Q99500 whole entry): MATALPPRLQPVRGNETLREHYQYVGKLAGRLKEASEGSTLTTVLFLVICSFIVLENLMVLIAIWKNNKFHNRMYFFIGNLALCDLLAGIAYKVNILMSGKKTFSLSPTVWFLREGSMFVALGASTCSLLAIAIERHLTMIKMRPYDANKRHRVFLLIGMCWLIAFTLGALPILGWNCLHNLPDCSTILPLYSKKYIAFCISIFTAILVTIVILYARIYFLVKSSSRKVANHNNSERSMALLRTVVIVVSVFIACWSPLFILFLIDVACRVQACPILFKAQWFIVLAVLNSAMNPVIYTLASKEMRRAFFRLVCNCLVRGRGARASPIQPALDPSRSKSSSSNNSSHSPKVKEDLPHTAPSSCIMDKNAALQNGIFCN
Please respond with reported EC50 for every item in the list.

Illustrative cases are given below, each with its answer.
> print(dat)
                                   compound  measuredproperty      value
1  CCNC(=O)C(O)c1ccc(-c2noc(-c3cnn(-c4ccccc4)c3C(F)(F)F)n2)cc1 (racemic)              EC50  > 62.5 µM
2  O=C(NCc1cc2ccccc2[nH]1)C(O)c1ccc(-c2noc(-c3onc(-c4ccccc4)c3C(F)(F)F)n2)cc1 (racemic)              EC50  > 31.2 µM
3  O=C(O)CCNC(=O)C(O)c1ccc(-c2noc(-c3onc(-c4ccccc4)c3C(F)(F)F)n2)cc1 (racemic)              EC50  > 62.5 µM

Take each entry in turn and give its EC50.
1. CCN(C)C(=O)C(O)c1ccc(-c2noc(-c3onc(-c4ccccc4)c3C(F)(F)F)n2)cc1 (racemic)
2. O=C(NC1CNC1)C(O)c1ccc(-c2noc(-c3onc(-c4ccccc4)c3C(F)(F)F)n2)cc1 (single isomer, unassigned)
3. O=C(NC1CCC1)C(O)c1ccc(-c2noc(-c3onc(-c4ccccc4)c3C(F)(F)F)n2)cc1 (racemic)

[A]
["> 62.5 µM", "> 31.2 µM", "> 62.5 µM"]

Reference for the values: patent US8835470B2
